# Tested on: SK-OV-3
# Assay Text: Cell growth inhibition experiment (SRB), SK-OV-3
# Type: cell-based, human
# Conditions Used: Homo sapiens, SK-OV-3, 96 h, 96 hours incubation, read-out: IC50 (μM) for cancer cell line SK-OV-3
Measured IC50 by item
Reported Metric: IC50

molecule="CCOc1nc2oc(C)cc2nc1NC(=O)N1CCN(c2cc(OC)cc(OCCN(C)C)c2)CC1 [Example 34]" observed_value="< 2.5 µM"
molecule="CCOc1nc2occc2nc1NC(=O)N1CCN(c2cc(OC)cc(OCCN(C)C)c2)CC1 [Example 14]" observed_value="< 2.5 µM"
molecule="COc1cc(C)cc(N2CCN(C(=O)Nc3nc4ccoc4nc3OC)CC2)c1 [Example 2]" observed_value="0.82 µM"
molecule="COc1nc2occc2nc1NC(=O)N1CCN(c2cc(F)cc(F)c2)CC1 [Example 7]" observed_value="< 2.5 µM"
molecule="COc1cc(OCCN(C)C)cc(N2CCN(C(=O)Nc3nc4cc(Cl)oc4nc3OC)CC2)c1 [Example 44]" observed_value="< 2.5 µM"
molecule="COc1cc(OCCN(C)C)cc(N2CCN(C(=O)Nc3nc4ccoc4nc3OC)CC2)c1 [Example 4]" observed_value="< 2.5 µM"
molecule="COc1cc(OCCN(C)C)cc(N2CCN(C(=O)Nc3nc4cc(C)oc4nc3OC)CC2)c1 [Example 24]" observed_value="0.12 µM"
molecule="COc1cc(F)cc(N2CCN(C(=O)Nc3nc4cc(Cl)oc4nc3OC)CC2)c1 [Example 43]" observed_value="2.13 µM"
molecule="COc1cc(OC)cc(N2CCN(C(=O)Nc3nc4ccoc4nc3OC)CC2)c1 [Example 1]" observed_value="0.27 µM"
molecule="CCOc1nc2oc(Cl)cc2nc1NC(=O)N1CCN(c2cc(C)cc(F)c2)CC1 [Example 56]" observed_value="< 2.5 µM"
molecule="CCOc1nc2oc(C)cc2nc1NC(=O)N1CCN(c2cc(C)cc(F)c2)CC1 [Example 36]" observed_value="1.12 µM"
molecule="COc1nc2occc2nc1NC(=O)N1CCN(c2cc(C(F)(F)F)cc(C(F)(F)F)c2)CC1 [Example 9]" observed_value="< 2.5 µM"
molecule="CCOc1nc2oc(Cl)cc2nc1NC(=O)N1CCN(c2cc(C)cc(C)c2)CC1 [Example 55]" observed_value="< 2.5 µM"
molecule="COc1cc(C)cc(N2CCN(C(=O)Nc3nc4cc(Cl)oc4nc3OC)CC2)c1 [Example 42]" observed_value="< 2.5 µM"
molecule="CCOc1nc2oc(Cl)cc2nc1NC(=O)N1CCN(c2cc(F)cc(F)c2)CC1 [Example 57]" observed_value="< 2.5 µM"
molecule="COc1nc2occc2nc1NC(=O)N1CCN(c2cccc(OC(F)(F)F)c2)CC1 [Example 10]" observed_value="1.23 µM"
molecule="CCOc1nc2occc2nc1NC(=O)N1CCN(c2cccc(OC(F)(F)F)c2)CC1 [Example 20]" observed_value="0.22 µM"
molecule="COc1nc2occc2nc1NC(=O)N1CCN(c2cc(C)cc(F)c2)CC1 [Example 6]" observed_value="< 2.5 µM"
molecule="CCOc1nc2oc(C)cc2nc1NC(=O)N1CCN(c2cccc(OC(F)(F)F)c2)CC1 [Example 40]" observed_value="< 2.5 µM"
molecule="CCOc1nc2oc(C)cc2nc1NC(=O)N1CCN(c2cc(C)cc(C)c2)CC1 [Example 35]" observed_value="< 2.5 µM"
molecule="COc1nc2oc(C)cc2nc1NC(=O)N1CCN(c2cccc(OC(F)(F)F)c2)CC1 [Example 30]" observed_value="1.12 µM"
molecule="CCOc1nc2oc(C)cc2nc1NC(=O)N1CCN(c2cc(C)cc(OC)c2)CC1 [Example 32]" observed_value="< 2.5 µM"
molecule="COc1nc2oc(Cl)cc2nc1NC(=O)N1CCN(c2cc(C(F)(F)F)cc(C(F)(F)F)c2)CC1 [Example 49]" observed_value="< 2.5 µM"
molecule="COc1nc2oc(C)cc2nc1NC(=O)N1CCN(c2cc(C(F)(F)F)cc(C(F)(F)F)c2)CC1 [Example 29]" observed_value="< 2.5 µM"
molecule="COc1cc(OC)cc(N2CCN(C(=O)Nc3nc4cc(Cl)oc4nc3OC)CC2)c1 [Example 41]" observed_value="< 2.5 µM"
molecule="CCOc1nc2occc2nc1NC(=O)N1CCN(c2cc(C(F)(F)F)cc(C(F)(F)F)c2)CC1 [Example 19]" observed_value="< 2.5 µM"
molecule="CCOc1nc2oc(Cl)cc2nc1NC(=O)N1CCN(c2cc(C)cc(OC)c2)CC1 [Example 52]" observed_value="< 2.5 µM"
molecule="COc1nc2oc(C)cc2nc1NC(=O)N1CCN(c2cc(F)cc(C(F)(F)F)c2)CC1 [Example 28]" observed_value="< 2.5 µM"
molecule="COc1nc2oc(Cl)cc2nc1NC(=O)N1CCN(c2cc(F)cc(F)c2)CC1 [Example 47]" observed_value="1.93 µM"
molecule="CCOc1nc2occc2nc1NC(=O)N1CCN(c2cc(F)cc(F)c2)CC1 [Example 17]" observed_value="< 2.5 µM"
molecule="COc1nc2oc(Cl)cc2nc1NC(=O)N1CCN(c2cccc(OC(F)(F)F)c2)CC1 [Example 50]" observed_value="< 2.5 µM"
molecule="CCOc1nc2oc(C)cc2nc1NC(=O)N1CCN(c2cc(OC)cc(OC)c2)CC1 [Example 31]" observed_value="< 2.5 µM"
molecule="CCOc1nc2occc2nc1NC(=O)N1CCN(c2cc(F)cc(OC)c2)CC1 [Example 13]" observed_value="< 2.5 µM"
molecule="CCOc1nc2occc2nc1NC(=O)N1CCN(c2cc(C)cc(OC)c2)CC1 [Example 12]" observed_value="1.29 µM"

The reported numbers originate from patent US10800788B2.
